# system_name: Aryl hydrocarbon receptor (Homo sapiens)
# assay_comment: AHR activator potency, dose response, cell-based, luminescence, luciferase reporter, human (AID 493060)
# setup_conditions: Human cell line AHR-responsive luciferase reporter
property_measured: EC50

Quick one: EC50 of "CCC(=O)Nc1cc(OC)c(NC(=O)c2ccccc2)cc1OC" ? 2490 nM

Quick one: EC50 of "COc1ccccc1NC(=O)c1ccc2c(c1)nnn2C" ? 139 nM

Quick one: EC50 of "O=C(CN1CCOCC1)Nc1nc2ccc([N+](=O)[O-])cc2s1" ? 6250 nM

New cases:
Quick one: EC50 of "CCCC(=O)Nc1nn(C)c2nc3cc(C)ccc3cc12" ? 250 nM
